target: CDK2/CycE (Homo sapiens); construct: GST; test: CDK2/CycE kinase assay (Method 2, TR-FRET); settings: Method 2, 10 μM ATP
measure: IC50 (µM)

I. CS(=O)(Cc1cc(F)nc(Nc2cc(-c3ccc(F)c4ccoc34)c(F)cn2)c1)=NC(=O)C(F)(F)F (racemic)
II. CS(=N)(=O)Cc1ccnc(Nc2cc(-c3ccc(F)c4ccoc34)c(F)cn2)c1 (racemic) [Example 5]
# input Looking at recorded values for IC50, does I or II come in lower? Write the label of whichever entry you select.
# output II
(II: 0.13 µM, I: 0.38 µM)

A. CS(=O)(Cc1ccnc(Nc2cc(-c3ccc(F)c4ccoc34)c(F)cn2)c1)=NC(=O)NCC(F)(F)F (racemic)
B. CS(=N)(=O)Cc1ccnc(Nc2cc(-c3ccc(F)c4ccoc34)c(F)cn2)c1 (single isomer, unassigned; (-)) [Example 15]
# input Of the pair A and B , name the member with the lesser recorded IC50. Please respond with the label that marks your chosen entry.
# output B

P. CS(=O)(Cc1ccnc(Nc2cc(-c3ccc(F)c4ccoc34)c(F)cn2)c1)=NC#N (racemic)
Q. CS(=N)(=O)Cc1cc(F)nc(Nc2cc(-c3ccc(F)c4ccoc34)c(F)cn2)c1 (racemic)
# input Hello, I am sorting some records. Could you say if P or Q has the smaller IC50 value? Kindly give the label for the entry you pick.
# output Q

P. CS(=N)(=O)Cc1cc(Nc2cc(-c3ccc(F)c4ccoc34)c(F)cn2)nc(C(F)(F)F)c1 (racemic)
Q. CS(=N)(=O)Cc1ccnc(Nc2cc(-c3ccc(F)c4ccoc34)c(F)cn2)c1 (single isomer, unassigned; (+)) [Example 14]
# input Recorded IC50 values differ for P and Q ; which one is higher? # respond with the chosen item's label
# output Q
(Q: 0.142 µM, P: 0.021 µM)
